meta.source: patent US20060067886A1

Method: Biodistribution of radiometal-DOTA-BBN conjugates in CF1 normal mice
Test Conditions: 1 hour post-injection
Criterion: Avg % ID/gm, Heart strictly less than 0.3 % ID/gm. Met: Condition met. Not met: Condition not met.

Past entries and their recorded results:
| Compound | Class Name |
| --- | --- |
| CSCC[C@H](NC(=O)[C@H](CC(C)C)NC(=O)[C@H](Cc1c[nH]cn1)NC(=O)CNC(=O)[C@@H](NC(=O)[C@H](C)NC(=O)[C@H](Cc1c[nH]c2ccccc12)NC(=O)[C@H](CCC(N)=O)NC(=O)CCCCNC(=O)CN1CCN(CC(=O)O)CCN(CC(=O)O)CCN(CC(=O)O)CC1)C(C)C)C(N)=O [177Lu-DOTA-5-Ava-BBN[7-14]NH2] [metal not drawn] | Condition not met |
| CSCC[C@H](NC(=O)[C@H](CC(C)C)NC(=O)[C@H](Cc1cnc[nH]1)NC(=O)CNC(=O)[C@@H](NC(=O)[C@H](C)NC(=O)[C@H](Cc1c[nH]c2ccccc12)NC(=O)[C@H](CCC(N)=O)NC(=O)CN1CCN(CC(=O)O)CCN(CC(=O)O)CCN(CC(=O)O)CC1)C(C)C)C(N)=O [149Pm-DOTA-0-BBN[7-14]NH2] | Condition met |

Task: Does the reported Avg % ID/gm, Heart of CSCC[C@H](NC(=O)[C@H](CC(C)C)NC(=O)[C@H](Cc1c[nH]cn1)NC(=O)CNC(=O)[C@@H](NC(=O)[C@H](C)NC(=O)[C@H](Cc1c[nH]c2ccccc12)NC(=O)[C@H](CCC(N)=O)NC(=O)CCCCNC(=O)CN1CCN(CC(=O)O)CCN(CC(=O)O)CCN(CC(=O)O)CC1)C(C)C)C(N)=O [149Pm-DOTA-5-Ava-BBN[7-14]NH2] stay below 0.3 % ID/gm?
Output: Condition not met

Task: is_below(Avg % ID/gm, Heart, 0.3 % ID/gm) for CSCC[C@H](NC(=O)[C@H](CC(C)C)NC(=O)[C@H](Cc1cnc[nH]1)NC(=O)CNC(=O)[C@@H](NC(=O)[C@H](C)NC(=O)[C@H](Cc1c[nH]c2ccccc12)NC(=O)[C@H](CCC(N)=O)NC(=O)CN1CCN(CC(=O)O)CCN(CC(=O)O)CCN(CC(=O)O)CC1)C(C)C)C(N)=O [177Lu-DOTA-0-BBN[7-14]NH2] [metal not drawn] ?
Output: Condition met

Task: Consider the compound CSCC[C@H](NC(=O)[C@H](CC(C)C)NC(=O)[C@H](Cc1cnc[nH]1)NC(=O)CNC(=O)[C@@H](NC(=O)[C@H](C)NC(=O)[C@H](Cc1c[nH]c2ccccc12)NC(=O)[C@H](CCC(N)=O)NC(=O)CCCCCCCNC(=O)CN1CCN(CC(=O)O)CCN(CC(=O)O)CCN(CC(=O)O)CC1)C(C)C)C(N)=O [177Lu-DOTA-8-Aoc-BBN[7-14]NH2] [metal not drawn] . Is its Avg % ID/gm, Heart strictly less than 0.3 % ID/gm?
Output: Condition met

Task: Threshold test, Avg % ID/gm, Heart < 0.3 % ID/gm: CSCC[C@H](NC(=O)[C@H](CC(C)C)NC(=O)[C@H](Cc1cnc[nH]1)NC(=O)CNC(=O)[C@@H](NC(=O)[C@H](C)NC(=O)[C@H](Cc1c[nH]c2ccccc12)NC(=O)[C@H](CCC(N)=O)NC(=O)CCNC(=O)CN1CCN(CC(=O)O)CCN(CC(=O)O)CCN(CC(=O)O)CC1)C(C)C)C(N)=O [177Lu-DOTA-β-Ala-BBN[7-14]NH2] [metal not drawn]
Output: Condition not met
